# key: entry, value: melting point

Incoming: Request the reported melting point associated with CCOC(=O)c1c(SCc2cn(CC(=O)Nc3cccc(OC)c3)nn2)nnc(-c2ccccc2)c1-c1ccccc1 [Compound 10e]
Outgoing: 155 to 157 °C

Incoming: Request the reported melting point associated with CCOC(=O)c1c(SCc2cn(CC(=O)Nc3ccccc3)nn2)nnc(-c2ccccc2)c1-c1ccccc1 [Compound 10a]
Outgoing: 147 to 149 °C

Incoming: Request the reported melting point associated with CCOC(=O)c1c(SCc2cn(CC(=O)Nc3ccc(OC)cc3)nn2)nnc(-c2ccccc2)c1-c1ccccc1 [Compound 10f]
Outgoing: 230 to 232 °C

Incoming: Request the reported melting point associated with CCOC(=O)c1c(SCc2cn(CC(=O)Nc3ccc(F)cc3)nn2)nnc(-c2ccccc2)c1-c1ccccc1
Outgoing: 211 to 213 °C

Incoming: Request the reported melting point associated with CCOC(=O)c1c(SCc2cn(CC(=O)Nc3cccc(C#N)c3)nn2)nnc(-c2ccccc2)c1-c1ccccc1 [Compound 10n]
Outgoing: 196 to 198 °C

Incoming: Request the reported melting point associated with CCOC(=O)c1c(SCc2cn(CC(=O)Nc3ccc(C(C)C)cc3)nn2)nnc(-c2ccccc2)c1-c1ccccc1 [Compound 10d]
Outgoing: 183 to 185 °C

Incoming: Request the reported melting point associated with CCOC(=O)c1c(SCc2cn(CC(=O)Nc3ccc([N+](=O)[O-])cc3)nn2)nnc(-c2ccccc2)c1-c1ccccc1 [Compound 10q]
Outgoing: 221 to 223 °C

###

Target: rat small intestine α-glucosidase
Experiment: Rat α-glucosidase assay (4-nitrophenol release from pNPG)
Assay type: biochemical
Settings: rat small intestine α-glucosidase; means of three replicates ± standard deviation
pIC50: −log10 of the molar value.
Binary classification by pIC50, with 4 as an inclusive lower bound for Y; all other cases are N.

Some solved cases for reference:
compound	cat
C[C@H]1O[C@H](O[C@H]2[C@H](O)[C@@H](O)[C@@H](O[C@H]3[C@H](O)[C@@H](O)C(O)O[C@@H]3CO)O[C@@H]2CO)[C@H](O)[C@@H](O)[C@@H]1N[C@H]1C=C(CO)[C@@H](O)[C@H](O)[C@H]1O (some centres unmarked) [Acarbose, reference compound]	N
CCOC(=O)c1c(SCc2cn(CC(=O)Nc3ccccc3Cl)nn2)nnc(-c2ccccc2)c1-c1ccccc1 [10 h]	Y
CCOC(=O)c1c(SCc2cn(CC(=O)Nc3cccc(Cl)c3)nn2)nnc(-c2ccccc2)c1-c1ccccc1 [Compound 10i]	N
CCOC(=O)c1c(SCc2cn(CC(=O)Nc3ccc([N+](=O)[O-])cc3)nn2)nnc(-c2ccccc2)c1-c1ccccc1 [Compound 10q]	Y
CCOC(=O)c1c(SCc2cn(CC(=O)Nc3ccc(OC)cc3)nn2)nnc(-c2ccccc2)c1-c1ccccc1 [Compound 10f]	Y
CCOC(=O)c1c(SCc2cn(CC(=O)Nc3ccc(Br)cc3)nn2)nnc(-c2ccccc2)c1-c1ccccc1 [Compound 10k]	Y
CCOC(=O)c1c(SCc2cn(CC(=O)Nc3ccc([N+](=O)[O-])c(C)c3)nn2)nnc(-c2ccccc2)c1-c1ccccc1 [Compound 10r]	N
CCOC(=O)c1c(SCc2cn(CC(=O)Nc3cc(Cl)cc(Cl)c3)nn2)nnc(-c2ccccc2)c1-c1ccccc1 [10 L]	Y

Incoming: Form field: pIC50 at least 4? Entry: CCOC(=O)c1c(SCc2cn(CC(=O)Nc3cccc(C)c3)nn2)nnc(-c2ccccc2)c1-c1ccccc1 [Compound 10b]
Outgoing: Y

Incoming: Form field: pIC50 at least 4? Entry: CCOC(=O)c1c(SCc2cn(CC(=O)Nc3ccc(F)cc3)nn2)nnc(-c2ccccc2)c1-c1ccccc1 [10 g]
Outgoing: Y

###

recorded_endpoint: melting point

Please review the entries below; each comes with its answer.
In [3]: df
Out[3]:
                                   molecule  recorded_value
0  CCOC(=O)c1c(SCc2cn(CC(=O)Nc3ccc([N+](=O)[O-])c(C)c3)nn2)nnc(-c2ccccc2)c1-c1ccccc1 [Compound 10r]   212 to 214 °C
1  CCOC(=O)c1c(SCc2cn(CC(=O)Nc3ccc(Cl)c(Cl)c3)nn2)nnc(-c2ccccc2)c1-c1ccccc1   166 to 168 °C

Incoming: Request the reported melting point associated with CCOC(=O)c1c(SCc2cn(CC(=O)Nc3cccc(Cl)c3)nn2)nnc(-c2ccccc2)c1-c1ccccc1 [Compound 10i]
Outgoing: 200 to 202 °C

Incoming: Request the reported melting point associated with CCOC(=O)c1c(SCc2cn(CC(=O)Nc3ccccc3Cl)nn2)nnc(-c2ccccc2)c1-c1ccccc1
Outgoing: 161 to 163 °C

Incoming: Request the reported melting point associated with CCOC(=O)c1c(SCc2cn(CC(=O)Nc3ccc(Br)cc3)nn2)nnc(-c2ccccc2)c1-c1ccccc1 [Compound 10k]
Outgoing: 224 to 226 °C

Incoming: Request the reported melting point associated with CCOC(=O)c1c(SCc2cn(CC(=O)Nc3ccc(C)cc3)nn2)nnc(-c2ccccc2)c1-c1ccccc1 [Compound 10c]
Outgoing: 207 to 209 °C

Incoming: Request the reported melting point associated with CCOC(=O)c1c(SCc2cn(CC(=O)Nc3cc(Cl)cc(Cl)c3)nn2)nnc(-c2ccccc2)c1-c1ccccc1
Outgoing: 185 to 187 °C

Incoming: Request the reported melting point associated with CCOC(=O)c1c(SCc2cn(CC(=O)Nc3ccc(Cl)cc3)nn2)nnc(-c2ccccc2)c1-c1ccccc1 [Compound 10j]
Outgoing: 195 to 197 °C

Incoming: Request the reported melting point associated with CCOC(=O)c1c(SCc2cn(CC(=O)Nc3cccc([N+](=O)[O-])c3)nn2)nnc(-c2ccccc2)c1-c1ccccc1 [Compound 10p]
Outgoing: 201 to 203 °C

###

Test system: rat small intestine α-glucosidase
Assay: Rat α-glucosidase assay (4-nitrophenol release from pNPG)
Format: biochemical
Conditions: SAR discussion
recorded_endpoint: α-glucosidase inhibitory activity (in words)

>>> df
                                   molecule  recorded_value
0  CCOC(=O)c1c(SCc2cn(CC(=O)Nc3ccc(Cl)c(Cl)c3)nn2)nnc(-c2ccccc2)c1-c1ccccc1          active
1  CCOC(=O)c1c(SCc2cn(CC(=O)Nc3cc(Cl)cc(Cl)c3)nn2)nnc(-c2ccccc2)c1-c1ccccc1          active
2  CCOC(=O)c1c(SCc2cn(CC(=O)Nc3ccc([N+](=O)[O-])cc3)nn2)nnc(-c2ccccc2)c1-c1ccccc1 [Compound 10q]          active

###

# key: entry, value: pIC50
Target: rat small intestine α-glucosidase
Assay: Rat α-glucosidase assay (4-nitrophenol release from pNPG)
Conditions: rat small intestine α-glucosidase; means of three replicates ± standard deviation
In plain terms, pIC50 is the concentration in mol/L turned into minus its base-10 logarithm.

Please review the entries below; each comes with its answer.
>>> print(df.to_string())
                                   compound                  target_under_test  recorded_value
0  CCOC(=O)c1c(SCc2cn(CC(=O)Nc3cccc(OC)c3)nn2)nnc(-c2ccccc2)c1-c1ccccc1 [Compound 10e]  rat small intestine α-glucosidase            4.45
1  CCOC(=O)c1c(SCc2cn(CC(=O)Nc3ccc(Cl)c(Cl)c3)nn2)nnc(-c2ccccc2)c1-c1ccccc1  rat small intestine α-glucosidase            4.56
2  CCOC(=O)c1c(SCc2cn(CC(=O)Nc3ccc(Cl)cc3)nn2)nnc(-c2ccccc2)c1-c1ccccc1 [Compound 10j]  rat small intestine α-glucosidase            4.68
3  CCOC(=O)c1c(SCc2cn(CC(=O)Nc3ccccc3)nn2)nnc(-c2ccccc2)c1-c1ccccc1 [Compound 10a]  rat small intestine α-glucosidase            4.45

Moving on to the next compound.
Incoming: Request the reported pIC50 associated with CCOC(=O)c1c(SCc2cn(CC(=O)Nc3ccc(C(C)C)cc3)nn2)nnc(-c2ccccc2)c1-c1ccccc1 [Compound 10d]
Outgoing: 4.06
